readout_type: melting point

Need melting point, item N#CCC=Cc1ccccc1S(N)(=O)=O
144 to 145 °C

One more compound: CN(C)C(=O)Nc1ccc(Oc2ccc(C(F)(F)F)cc2Cl)cc1
140 °C

One more compound: Cn1ncc(C(=O)N2CCCC2)c1C(=O)Nc1ccn2nc(N3CCOCC3)nc2c1
210 to 212 °C

One more compound: CCCc1nc2c(N)nc3ccccc3c2n1CC(C)(C)CC(C)=O
178 to 180 °C

One more compound: COc1cc(C(=O)CN2CCN(c3ccncc3)CC2)ccc1OCC(=O)O
218 to 224 °C

----------
readout_type: melting point

Need melting point, item CC1=Nc2ccc(S(=O)(=O)NC3CCCCC3)cc2S(=O)(=O)N1
239 to 242 °C

One more compound: COc1ccc(-c2nc(COc3cccc([N+](=O)[O-])c3)c(C)o2)cc1
109 to 111 °C

One more compound: CC(C)C(c1cncnc1C#N)N(C)C(=O)Cc1ccccc1 (stereo not given)
80 to 81 °C

One more compound: O=C(NO)c1ccc2c(c1)CCN(C(=O)C1CC1)C2
90 °C

One more compound: CCCc1c(C#N)c2ccc(C(=O)O)cc2n1Cc1ccccc1Cl
240 to 241 °C

One more compound: COC(=O)c1ccccc1Sc1cc(C=O)ccc1OC
99 to 104 °C

One more compound: CC(C)(C)[C@@H](CO)NC(=O)[C@@H](CC(=O)O)n1ccc(-c2ccc(-c3ccc(C#N)cc3)cc2)c1
110 to 112 °C

One more compound: COc1ccc(NC(=O)Nc2ccc(Cl)c(Cl)c2)cc1NC(=S)Nc1cc(C(F)(F)F)cc(C(F)(F)F)c1
181 °C

One more compound: Cc1cccc(Nc2cc(Cl)nc(SCC(=O)NN)n2)c1C
185 to 189 °C

One more compound: CC1=C(CCN(O)C(N)=O)/C(=C/c2ccc(S(C)=O)cc2)c2ccccc21 (stereo not given)
166 to 169 °C

----------
readout_type: melting point (°C)
Enter your answer as a number in °C; do not include the unit.

Need melting point, item COc1ccc(C=O)cc1CS(=O)(=O)O
54

One more compound: Nc1ncc(-c2ccc(=O)[nH]n2)c(-c2cccnc2)n1
256

----------
Kindly state melting point for each of the entries shown.

Need melting point, item O=C(O)C1(c2cccc(C(F)(F)F)c2)CCN(Cc2ccccc2)CC1
243 °C

One more compound: C1=COc2ccccc2O1
59 to 61 °C

One more compound: Cc1ccc2[nH]c3c(cc(-c4ccccc4Nc4ccccc4)c(=O)n3C)c2c1
188 to 190 °C

One more compound: CCCCc1nc2c(N)nc3ccccc3c2n1CC(C)(C)OCCS(C)(=O)=O
196 to 198 °C

One more compound: CCOc1nc2ccccc2nc1N(C)C(=O)N1CCN(c2cc(Cl)cc(Cl)c2)CC1
129 to 131 °C

One more compound: Cc1nc(NC(=O)N(C)C)sc1C
202 to 204 °C

One more compound: CC(n1cncn1)C(O)(Cn1cncn1)c1ccc(Cl)cn1 (stereo not given)
156 to 157 °C

One more compound: CN(SSN(C)S(=O)(=O)c1ccccc1)S(=O)(=O)c1ccccc1
101 to 106 °C

One more compound: Oc1cc(F)ccc1Oc1ccc(-c2ccco2)cc1O
102 to 104 °C

One more compound: CNc1n[nH]c(=O)n1N
214 °C

One more compound: CC(C)NC(=O)Nc1ccc(-c2ccnc3c(C(=O)c4cccs4)cnn23)s1
162 to 165 °C

One more compound: Cc1ccc(Oc2c([N+](=O)[O-])cc(C(=O)O)cc2S(N)(=O)=O)cc1
236 °C

One more compound: COC(=O)c1c(Cl)nc(N2CCC(O)CC2)nc1NCc1ccc(OC)c(Cl)c1
138 to 139 °C

One more compound: Cc1cc2c(-c3ccccc3C)c(NC(=O)Nc3ccc(F)cc3F)c(=O)n(C)c2cc1C
225 to 226 °C

One more compound: COC(=O)c1ccc2cc(-c3cc4c(c(C56CC7CC(CC(C7)C5)C6)c3)OCO4)ccc2c1
217 to 220 °C

One more compound: Cc1nc(Br)c(S(C)(=O)=O)c(Br)n1
161 to 162 °C

One more compound: CN1CCN(C2=Nc3ccccc3N(C)c3sc4ccccc4c32)CC1
88 to 90 °C

One more compound: CCOC(=O)C(=O)c1ccc(OCCCCCCCCCCCCOc2ccccc2)cc1
58 to 59 °C

One more compound: CC1OC(N2CC(C)(I)C(=O)NC2=O)CC1O[Si](c1ccccc1)(c1ccccc1)C(C)(C)C (stereo not given)
142 °C

One more compound: C=CCN(c1ccccc1)c1cc(C(N)=O)c(C(=O)O)cc1N(CC=C)c1ccccc1
114 to 116 °C

One more compound: CCOc1ccc(Nc2nnc(Cc3ccncc3)c3ccccc23)cc1
223 to 224 °C

One more compound: C[C@H](C#Cc1ccc(Cc2ccc(Cl)cc2)s1)N(O)C(N)=O
132 °C

One more compound: O=c1[nH]c(=Cc2cccs2)c(=O)[nH]c1=Cc1ccc(OCc2ccccc2)cn1
215 to 217 °C

One more compound: CCCCCCCCCCCCc1nnc(C(C(=O)Nc2c(C(C)C)cccc2C(C)C)c2ccccc2)o1 (stereo not given)
82 to 84 °C

One more compound: O=C(O)c1cccc(-c2cccc3c2CN(Cc2cccc(C(F)(F)F)c2)C3=O)c1
190 to 191 °C

One more compound: C#Cc1ccc(SC)cc1Cl
46 to 50 °C

One more compound: CNC1(C)CN(c2c(F)cc3c(=O)c(C(=O)O)cn(C4CC4)c3c2F)C1
> 300 °C

One more compound: CCc1noc2c(Cl)c3c(cc12)CC(C(=O)O)O3 (stereo not given)
213 to 215 °C

One more compound: CCOP(=O)(OCC)Oc1ccc(/C=C2/C(=O)Nc3cc(OC)c(OC)cc32)cc1
139 to 141 °C

One more compound: COCn1c(-c2ncc(CO)s2)cc2cccc(N(C)S(=O)(=O)c3cccs3)c21
156 to 157 °C

One more compound: CC(C)(C)OC(=O)n1c(C(=O)O)cc2ccccc21
117 °C

One more compound: CCOC(=O)CCCCCOc1ccc(C(=O)Nc2ccccc2Sc2ccccc2-c2nnn[nH]2)cc1
137 to 138 °C

One more compound: O=C(CCl)Nc1ccccc1C(=O)c1ccccc1C(F)(F)F
79 to 81 °C

One more compound: O=C(O)C1=Cc2cc(Cl)ccc2NC1C(F)(F)F (stereo not given)
133 to 134 °C

One more compound: CC(=O)Nc1c(Cl)cc2c(=O)c(C(=O)O)cn3c2c1CCC3C (stereo not given)
234 to 236 °C

One more compound: CCOC(=O)c1c(OCC)cc(C(F)(F)F)nc1C(F)(F)F
57 to 59 °C

One more compound: CC(C)CCn1c(=O)[nH]c2cc(Cl)cc(Cl)c2c1=O
227 to 229 °C

One more compound: Nc1nc2[nH]c(CCCc3cc(C(=O)N[C@@H](CCC(=O)O)C(=O)O)cs3)cc2c(=O)[nH]1
191 to 192 °C

One more compound: Cc1nnc(C=Cc2ccccc2OCC(O)CCl)s1 (stereo not given)
168 to 170 °C

One more compound: CC(=O)N1CCN(C2=CC(C)(C)Oc3ccc(C#N)cc32)C1=NC#N
200 to 201 °C
